- RUN DESCRIPTION: soluble fraction after stress (log2 fold change); higher = more stays soluble; pooled small domains, quantitative proteomics
- CONDITION PARAMETERS: stress: 50 degC
Provide the recorded soluble fraction (log2) for the entries that follow.
Numbers only.

HMVDPRWETPDENLAEQIKSVMPVMWVYDREAKSFVERPAIDFSFSIFERTTLYIYDKDGNEIGFAR | -0.028
HMREKLKEYVHLLFAGTVGKEDMEQEILQNTLDRFDDWVARGFSEEDAYRKAVSGIGDIDALLG | -0.288
HMGDKVLIQTAQRLKKDLPFASIVSRFGGDEFLIFLPGISSTERVETIVKKTVFLFIAISTTLF | -0.124

# per-item lookup of soluble fraction (log2); items listed below
1. HMGGKYKGVIIGHLIDKTLRYNELQKLISHATPKMLIQQLKELEADGIIQRKLYPVVPPKTEYSLTERG
2. HMNVEATAETLLALLKKNGGSLPFGDKSDPEAIQSQLKMSKKTFKKAAGTLFKKKLVRIEDHGIFL
3. HMTNVVSKNKAKEIAMNIINDTVLQGQTAATFKEIVKANGVYVVKIEIQGQEYTSYITKDGKIVFPYGVEV
4. HMSVTRELMLVKVKVTPEQRAGVSAIVDIFRANIIDVGKESMIIELTGNKSKLEAFIDLLDGYEILELART
5. HMPSLGADIRALRKSRKMTLVALADALGRSVGWLSQVERDKSHATIADLGRMAEVLDVSISSFL
6. HMTFNLDVDGDDQVTALGDGLMIIRKLFGATFAGDALTNKAISPDATRTTDEIHAYIEKGITSGVLD

[-0.754, -0.657, -0.451, -0.861, -0.27, -0.268]
